Hey, just so you know, these numbers are from ChEMBL document CHEMBL1149562.

Listed here: items and their measured IC50.
# assay.system: Prostaglandin E2 receptor EP1 subtype (Homo sapiens, UniProt P34995)
# Sequence (P34995 whole entry): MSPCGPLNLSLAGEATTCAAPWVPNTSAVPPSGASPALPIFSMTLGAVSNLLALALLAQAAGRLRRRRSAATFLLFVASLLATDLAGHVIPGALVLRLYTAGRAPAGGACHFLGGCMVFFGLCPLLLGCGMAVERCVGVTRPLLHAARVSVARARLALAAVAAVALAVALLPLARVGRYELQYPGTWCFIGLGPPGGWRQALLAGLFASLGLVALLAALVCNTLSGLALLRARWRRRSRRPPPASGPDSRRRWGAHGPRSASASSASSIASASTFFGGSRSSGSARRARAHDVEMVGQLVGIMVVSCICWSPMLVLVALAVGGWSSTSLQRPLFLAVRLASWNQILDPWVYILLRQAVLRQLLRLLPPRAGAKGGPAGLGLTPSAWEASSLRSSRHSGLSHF
# test.details: Displacement of [3H]PGE2 from human recombinant EP1 receptor expressed in CHO cell membrane
# Type: cell membranes
# run.conditions: read-out: Log IC50 (converted)
The figure you give is taken to be in nM; do not add the unit.

Completed entries (count: 2):
# smiles.data, assay.system, IC50, nM
data = [
    ("Cc1ccc(S(=O)(=O)N(Cc2nnc(Cc3ccccc3F)o2)c2cccc(Cl)c2C)cc1", "Prostaglandin E2 receptor EP1 subtype (Homo sapiens, UniProt P34995)", 501),
    ("Cc1ccc(S(=O)(=O)N(Cc2nnc(Cc3ccc(N(C)C)cc3)o2)c2cccc(Cl)c2C)cc1", "Prostaglandin E2 receptor EP1 subtype (Homo sapiens, UniProt P34995)", 12.6),
]

For the next question, use this molecule.
[in] Request body: readout IC50, system Prostaglandin E2 receptor EP1 subtype (Homo sapiens, UniProt P34995), query Cc1ccc(S(=O)(=O)N(Cc2nnc(Cc3ccccc3Cl)o2)c2cccc(Cl)c2C)cc1 . Return the value.
[out] 79.4

* * *

Listed here: items and their measured Ki.
# assay.system: Prostaglandin E2 receptor EP1 subtype (Homo sapiens)
# test.details: Antagonist activity at human recombinant EP1 receptor expressed in CHO cells assessed as inhibition of PGE2-induced calcium mobilization by FLIPR
I'd appreciate it if you wrote the number followed by its unit.

# smiles.data, assay.system, Ki
measured = [
    ("COc1ccc(Cc2nnc(CN(c3cccc(Cl)c3C)S(=O)(=O)c3ccc(C)cc3)o2)cc1", "Prostaglandin E2 receptor EP1 subtype (Homo sapiens)", "39.8 nM"),
    ("CCc1ccccc1N(Cc1nnc(Cc2ccc(OC)cc2)o1)S(=O)(=O)c1ccc(C)cc1", "Prostaglandin E2 receptor EP1 subtype (Homo sapiens)", "631 nM"),
    ("Cc1ccc(S(=O)(=O)N(Cc2nnc(Cc3ccc(C(F)(F)F)cc3)o2)c2cccc(Cl)c2C)cc1", "Prostaglandin E2 receptor EP1 subtype (Homo sapiens)", "158 nM"),
]

For the next question, use this compound.
[in] Which Ki value is on record for COc1ccc(Nc2nnc(CN(c3cccc(Cl)c3Cl)S(=O)(=O)c3ccc(C(F)(F)F)cc3)o2)cc1 ?
[out] 63.1 nM
